SUBJECT OF TEST: MAP kinase-interacting serine/threonine-protein kinase 2 (Homo sapiens)
TEST CONDITIONS: at 0.1 µM
Description: GSK_PKIS: MNK2 mean inhibition at 0.1 uM [Nanosyn]
Here the recorded inhibition is given for each entry.
The response must be a number in % with no trailing unit.

NS(=O)(=O)c1ccc(N/C=C2\C(=O)Nc3ccc4ncsc4c32)cc1 0.94
Cc1cc(-c2ccco2)cc(C)c1/C=C/c1cncc(-c2nn[nH]n2)c1 4.58

Lookup result for Fc1ccc(-c2ncn(C3CCNCC3)c2-c2ccnc(Oc3ccccc3)n2)cc1 ; measured inhibition: 1.12

NS(=O)(=O)c1ccc(-c2ccc3c(NC(=O)C4CC4)n[nH]c3c2)cc1 has a reported inhibition of 0.71

inhibition reported for this compound COc1cccc(-n2ncc3c(N/N=C/c4ccncc4)ncnc32)c1 : 15.2

Record COc1cc(C=NNc2ncnc3c2cnn3Cc2ccccc2)ccc1O , field inhibition: -0.35

So, CCn1c(-c2nonc2N)nc2c(C#CCN)ncc(OCCCN)c21 ? Its inhibition was 5.13

Entry COc1cc2c(cc1Nc1nc(Nc3ccsc3C(N)=O)c3cc[nH]c3n1)N(C(=O)CN(C)C)CCC2 , inhibition reported as -0.68

Quick note, inhibition for CCn1c(-c2nonc2N)nc2c(C#CC(C)(C)O)nc(O[C@@H](CN)c3ccccc3)cc21 landed at 5.3

Record NC(=O)c1sc(-n2cnc3cc(C(F)(F)F)ccc32)cc1OCc1ccccc1Br . Reported inhibition: 1.3
